# System: HCI-012 (organoid from a breast cancer xenograft)
# METHOD_SUMMARY: CTG-3D luminescence at 96 h relative to day-0 seeding control (ratio to day 0); higher = more growth / less cytotoxicity; PDxO 3D drug screen, 96 h, CTG-3D normalised to day-0 seeding control.
# EXPERIMENTAL_PARAMETERS: 100 µM; days in culture: 201
PROPERTY_LABEL: CTG-3D luminescence at 96 h
Answer using only a numeral; do not append any unit.

MOLECULE	ASSAY_TARGET	CTG-3D luminescence at 96 h
CC(C)n1nc(-c2ccc3oc(N)nc3c2)c2c(N)ncnc21	HCI-012	0.0781
C[C@@H]1COCCN1c1cc(C2([S@](C)(=N)=O)CC2)nc(-c2cc[nH]c3nccc2-3)n1	HCI-012	0.973
Cc1cc(Nc2ncc(Cl)c(Nc3ccccc3S(=O)(=O)C(C)C)n2)c(OC(C)C)cc1C1CCNCC1	HCI-012	-0.00682
CCN1CCN(Cc2ccc(Nc3ncc(F)c(-c4cc(F)c5nc(C)n(C(C)C)c5c4)n3)nc2)CC1	HCI-012	0.0218
C[C@]12CC[C@@H]3c4ccc(O)cc4C[C@@H](CCCCCCCCC[S+]([O-])CCCC(F)(F)C(F)(F)F)[C@H]3[C@@H]1CC[C@@H]2O (stereo partly specified)	HCI-012	2.1
COc1cccc2c1C(=O)c1c(O)c3c(c(O)c1C2=O)C[C@@](O)(C(=O)CO)C[C@@H]3O[C@H]1C[C@H](N)[C@H](O)[C@H](C)O1	HCI-012	-0.0192
CC(=O)O[C@H]1C(=O)[C@@]2(C)[C@H]([C@H](OC(=O)c3ccccc3)[C@]3(O)C[C@H](OC(=O)[C@H](O)[C@@H](NC(=O)c4ccccc4)c4ccccc4)C(C)=C1C3(C)C)[C@]1(OC(C)=O)CO[C@@H]1C[C@@H]2O	HCI-012	1.01
CNC(=O)c1cccc(-c2ccc3c(N4CCOC[C@@H]4C)nc(N4CCOC[C@@H]4C)nc3n2)c1	HCI-012	0.745

Q) Bench note: what CTG-3D luminescence at 96 h did "CC[C@H](NC(=O)[C@H](C)NC)C(=O)N1C[C@@H](O)C[C@H]1Cc1c(-c2[nH]c3cc(F)ccc3c2C[C@@H]2C[C@H](O)CN2C(=O)[C@H](CC)NC(=O)[C@H](C)NC)[nH]c2cc(F)ccc12" show?
A) 0.0538

Q) Bench note: what CTG-3D luminescence at 96 h did "CCc1c2c(nc3ccc(O)cc13)-c1cc3c(c(=O)n1C2)COC(=O)[C@]3(O)CC" show?
A) 0.014

Q) Bench note: what CTG-3D luminescence at 96 h did "NC(=O)Nc1cc(-c2cccc(F)c2)sc1C(=O)N[C@H]1CCCNC1" show?
A) 0.00358

---

// reported CTG-3D luminescence at 96 h per item
# Tested on: HCI-027 (organoid from a triple-negative breast cancer xenograft)
# METHOD_SUMMARY: CTG-3D luminescence at 96 h relative to day-0 seeding control (ratio to day 0); higher = more growth / less cytotoxicity; PDxO 3D drug screen (set 2), 96 h, CTG-3D normalised to day-0 seeding control.
# EXPERIMENTAL_PARAMETERS: 12.5 pM; days in culture: 176
Answer using only a numeral; do not append any unit.

STRUCTURE	CTG-3D luminescence at 96 h
CO[C@H]1C[C@@H]2CC[C@@H](C)[C@@](O)(O2)C(=O)C(=O)N2CCCC[C@H]2C(=O)O[C@H]([C@H](C)C[C@@H]2CC[C@@H](O)[C@H](OC)C2)CC(=O)[C@H](C)/C=C(\C)[C@@H](O)[C@@H](OC)C(=O)[C@H](C)C[C@H](C)/C=C/C=C/C=C/1C	3.28

Q) Bench note: what CTG-3D luminescence at 96 h did "CO[C@H]1C[C@@H]2CC[C@@H](C)[C@@](O)(O2)C(=O)C(=O)N2CCCC[C@H]2C(=O)O[C@H]([C@H](C)C[C@@H]2CC[C@@H](OCCO)[C@H](OC)C2)CC(=O)[C@H](C)/C=C(\C)[C@@H](O)[C@@H](OC)C(=O)[C@H](C)C[C@H](C)/C=C/C=C/C=C/1C" show?
A) 2.43

Q) Bench note: what CTG-3D luminescence at 96 h did "C[C@@H](Nc1cc(F)cc(F)c1)c1cc(C(=O)N(C)C)cc2c(=O)cc(N3CCOCC3)oc12" show?
A) 2.9

Q) Bench note: what CTG-3D luminescence at 96 h did "O=C(c1cc(Cc2n[nH]c(=O)c3ccccc23)ccc1F)N1CCN(C(=O)C2CC2)CC1" show?
A) 3.94

These entries and their values trace back to the supplement of paper PMC8882468.
